Tested on: Chordin-like protein 2 (CHRDL2)
experimental_protocol: CHRDL2 small-molecule binders, primary screen, biochemical, small-molecule microarray, 635 nm fluorescence (AID 1126);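 note: printed compound slides probed with Chrdl2 protein at 4 µg/mL for 1 h at 4 C; score merges 667 nm emission intensity with signal to noise over three replicate slides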
applied_conditions: small-molecule microarray binding, fluorescence 635 nm; higher = more signal
Classify as follows. Reported composite z-score greater than or equal to -0.6: class 1. Reported composite z-score below: class 0.

I'd appreciate it if you could say whether `O=C1O[C@@H](c2ccccc2)[C@@H](c2ccccc2)N2[C@@H](c3ccc(OCCO)cc3)[C@]3(C(=O)Nc4ccc(C#CC5(O)CCCCCC5)cc43)[C@@H](C(=O)NC[C@H](O)c3ccccc3)[C@H]12` has composite z-score at least equal to -0.6.
class 1

Next up: `C=C(COC)C(=O)CC[C@H](OC(=O)c1cccnc1)c1cccc(OCCO)c1`
class 1

Next up: `C=CC[C@]1(C(=O)N2CCCCC2)COC(c2ccc(OCCCO)cc2)=N1`
class 0

Next up: `C=C(CCCC)/C(=C/C[C@@H](OC(=O)c1ccncc1)c1ccc(OCCO)cc1)c1cnc2ccccc2c1`
class 1

Next up: `CC(C)NC(=O)[C@@H]1c2ccccc2C(=O)N(Cc2cc(F)cc(C(F)(F)F)c2)[C@H]1c1ccc(CO)cc1`
class 1

Next up: `C=CCN1C(=O)[C@]2(O[C@H](CCn3cc([C@H](O)c4ccccc4)nn3)[C@@H]([Si](C)(C)c3ccc(OC)cc3)[C@@H]2C)c2cc(N3CCOC3=O)ccc21`
class 1

Next up: `COCCOC(=O)N1C(=O)[C@@]2(c3cc(C#CCNC(N)=O)ccc31)[C@H](C(=O)NC[C@H](O)c1ccccc1)[C@H]1C(=O)O[C@H](c3ccccc3)[C@H](c3ccccc3)N1[C@@H]2c1ccc(O)cc1`
class 1

Next up: `COc1ccc([Si](C)(C)[C@@H]2[C@@H](CCn3cc(CCO)nn3)O[C@]3(C(=O)N(Cc4ccc(N5C(=O)c6cccc7cccc5c67)cc4)c4ccccc43)[C@H]2C)cc1`
class 1

Next up: `C=C(/C(=C/C[C@H](OC(C)=O)c1cccc(OCCO)c1)c1cc(C(=O)OC)ccc1OC)C(C)C`
class 0

Next up: `CCCC[C@@H](O)C1=C(C)C[C@H]2C(=O)N(C)C(=O)[C@H]2[C@H]1CO`
class 1

Next up: `CC(C)C[C@@H]1NC(=O)[C@H]2C[C@@H](C(=O)NCCCC[N+](C)(C)C)[C@@H](c3cccc(OCCO)c3)N2C1=O`
class 1

Next up: `C=CCN1C(=O)[C@@]2(O[C@@H](CCn3cc(CCO)nn3)[C@H]([Si](C)(C)c3ccc(OC)cc3)[C@H]2C)c2cc(NC(=O)c3ccc(OC)cc3)ccc21`
class 1

Next up: `COc1ccc(CCNC(=O)[C@@]2(Sc3ccc(C)cc3)CC(=O)N(Cc3ccccc3)[C@@H]2c2ccc(CO)cc2I)cc1`
class 0

Next up: `COCCCNC(=O)[C@@]1(Cc2ccccc2CN=[N+]=[N-])COC(c2ccc(OCCCO)cc2)=N1`
class 0

* * *

experimental_protocol: small-molecule microarray binders of probe aEGFR, primary screen, biochemical, biotinylated probe, 635/667 nm fluorescence (AID 1097);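 note: probe is a biotinylated anti-EGFR antibody binding compounds printed on slides; score combines fluorescence near 667 nm and signal to noise of each spot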
applied_conditions: higher = more signal
value_type: composite z-score
// no unit, no text: just the number

I have this compound here, `[N-]=[N+]=NCc1ccccc1C[C@@]1(C(=O)O)N=C(c2ccc(OCCCO)cc2)O[C@@H]1c1ccccc1` , and I need its recorded composite z-score.
-0.221

Next up: `C=CC[C@]1(C(=O)N2CCCCC2)COC(c2ccc(OCCCO)cc2)=N1`
-0.0933

Next up: CCN(CC)c1ccc(N2CC=CC34O[C@@H]5C=CCOC(=O)[C@@H]5[C@H]3C(=O)N(C(C)CO)[C@@H]4C2=O)cc1 (stereo partly drawn)
-0.252
